From: PubChem BioAssay AID1963873

- Test system: 276233-004-R-J1-PDC KRAS spheroids with HUVEC/MSC, viability
- assay.info: Anticancer human tumor 276233-004-R-J1-PDC patient-derived colon adenocarcinoma cell line growth inhibition [KRAS2]
- test.conditions: second compound 0.1 µM; first compound 0.1 µM; stronger effect = lower value
reported.metric: viability, T/C (%)
Value expressed in %; do not type the unit.

Give its viability, T/C value. Item: COc1cc(Nc2ncc3c(n2)-c2ccc(Cl)cc2C(c2c(F)cccc2OC)=NC3)ccc1C(=O)O + C=CC(=O)N1CCN(c2nc(=O)n(-c3c(C)ccnc3C(C)C)c3nc(-c4c(O)cccc4F)c(F)cc23)C(C)C1
118

What about COc1cc2nccc(Oc3ccc(NC(=O)C4(C(=O)Nc5ccc(F)cc5)CC4)cc3)c2cc1OC + C=CC(=O)N1CCN(c2nc(OCC3CCCN3C)nc3c2CCN(c2cccc4cccc(C)c24)C3)CC1CC#N ?
116

What about CN(C)C/C=C/C(=O)Nc1cc2c(Nc3ccc(F)c(Cl)c3)ncnc2cc1O[C@H]1CCOC1 + C=CC(=O)N1CCN(c2nc(OCC3CCCN3C)nc3c2CCN(c2cccc4cccc(C)c24)C3)CC1CC#N ?
85.7

What about COc1cc2nccc(Oc3ccc(NC(=O)C4(C(=O)Nc5ccc(F)cc5)CC4)cc3)c2cc1OC + CC1OCC2(CCN(c3cnc(Sc4ccnc(N)c4Cl)c(N)n3)CC2)C1N ?
77.1

What about CC1(C)CCC(CN2CCN(c3ccc(C(=O)NS(=O)(=O)c4ccc(NCC5CCOCC5)c([N+](=O)[O-])c4)c(Oc4cnc5[nH]ccc5c4)c3)CC2)=C(c2ccc(Cl)cc2)C1 + C=CC(=O)N1CCN(c2nc(=O)n(-c3c(C)ccnc3C(C)C)c3nc(-c4c(O)cccc4F)c(F)cc23)C(C)C1 ?
105

----------
- System: 276233-004-R-J1-PDC KRAS spheroids with HUVEC/MSC, viability
- assay.info: Anticancer human tumor 276233-004-R-J1-PDC cell line growth inhibition [KRAS2];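 also: cells exposed to agents for seven days before viability read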;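 as to viability, T/C: 100% = DMSO vehicle control wells and lower values mean fewer viable cells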
- test.conditions: second compound 0.316 µM; first compound 3.16 µM; stronger effect = lower value
viability, T/C under 70% gets Criterion met, anything at or over 70% gets Criterion not met.

Field: below-cutoff. Rule: recorded viability, T/C strictly less than 70%. Subject: Cn1nccc1Nc1nccc(-c2cc3c(s2)C(C)(C)N(CCN2CCOCC2)C3=O)n1 + C=CC(=O)N1CCN(c2nc(OCC3CCCN3C)nc3c2CCN(c2cccc4cccc(C)c24)C3)CC1CC#N
Criterion met

What about COc1cc(Nc2ncc3c(n2)-c2ccc(Cl)cc2C(c2c(F)cccc2OC)=NC3)ccc1C(=O)O + C=CC(=O)N1CCN(c2nc(=O)n(-c3c(C)ccnc3C(C)C)c3nc(-c4c(O)cccc4F)c(F)cc23)C(C)C1 ?
Criterion not met

What about CC(=O)OC12COC1CC(O)C1(C)C(=O)C(O)C3=C(C)C(OC(=O)C(O)C(NC(=O)OC(C)(C)C)c4ccccc4)CC(O)(C(OC(=O)c4ccccc4)C21)C3(C)C (stereo not given) + C=CC(=O)N1CCN(c2nc(OCC3CCCN3C)nc3c2CCN(c2cccc4cccc(C)c24)C3)CC1CC#N ?
Criterion not met

What about CC1OCC2(CCN(c3cnc(Sc4ccnc(N)c4Cl)c(N)n3)CC2)C1N (stereo not given) + COc1cc2nc(C)nc(NC(C)c3cc(N)cc(C(F)(F)F)c3)c2cc1OC1CCOC1 ?
Criterion met

----------
- Tested on: 276233-004-R-J1-PDC KRAS spheroids with HUVEC/MSC, viability
- assay.info: Anticancer human tumor 276233-004-R-J1-PDC cell line growth inhibition [KRAS2];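 also: cells exposed to agents for seven days before viability read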
- test.conditions: curve of first compound; second compound 10 µM
pIC50: −log10 of the molar value.
Hi there, I'd appreciate the recorded pIC50 for every entry that follows.

Record lookup: for 276233-004-R-J1-PDC KRAS spheroids with HUVEC/MSC, viability, what pIC50 belongs to Cn1ncnc1[C@H]1c2n[nH]c(=O)c3cc(F)cc(c23)N[C@@H]1c1ccc(F)cc1 + CC1OCC2(CCN(c3cnc(Sc4ccnc(N)c4Cl)c(N)n3)CC2)C1N ?
< 7.00

What about CC(C)n1nc(-c2ccc3oc(N)nc3c2)c2c(N)ncnc21 + COc1cc2nc(C)nc(NC(C)c3cc(N)cc(C(F)(F)F)c3)c2cc1OC1CCOC1 ?
> 9.50

What about CC(C)n1nc(-c2ccc3oc(N)nc3c2)c2c(N)ncnc21 + C=CC(=O)N1CCN(c2nc(=O)n(-c3c(C)ccnc3C(C)C)c3nc(-c4c(O)cccc4F)c(F)cc23)C(C)C1 ?
< 7.00

----------
- Tested on: 276233-004-R-J1-PDC KRAS spheroids with HUVEC/MSC, viability
- assay.info: Anticancer human tumor 276233-004-R-J1-PDC cell line growth inhibition [KRAS2]; active = viability on the fitted dose curve at most 10% of control; inactive = the rest;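 also: cells exposed to agents for seven days before viability read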
- test.conditions: second compound 3.16 µM; first compound 0.1 µM
A correct response names exactly one class from active, inactive

Write down the call the test reported for this compound. Item: COc1cc(Nc2ncc3c(n2)-c2ccc(Cl)cc2C(c2c(F)cccc2OC)=NC3)ccc1C(=O)O + COc1cc2nc(C)nc(NC(C)c3cc(N)cc(C(F)(F)F)c3)c2cc1OC1CCOC1
inactive

What about CC(C)NCC(C(=O)N1CCN(c2ncnc3c2C(C)CC3O)CC1)c1ccc(Cl)cc1 (stereo not given) + CC1OCC2(CCN(c3cnc(Sc4ccnc(N)c4Cl)c(N)n3)CC2)C1N ?
inactive

What about Cn1ncnc1[C@H]1c2n[nH]c(=O)c3cc(F)cc(c23)N[C@@H]1c1ccc(F)cc1 + COc1cc2nc(C)nc(NC(C)c3cc(N)cc(C(F)(F)F)c3)c2cc1OC1CCOC1 ?
inactive

What about O=C(c1cc(Cc2n[nH]c(=O)c3ccccc23)ccc1F)N1CCN(C(=O)C2CC2)CC1 + C=CC(=O)N1CCN(c2nc(OCC3CCCN3C)nc3c2CCN(c2cccc4cccc(C)c24)C3)CC1CC#N ?
inactive

What about COc1cc(Nc2ncc3c(n2)-c2ccc(Cl)cc2C(c2c(F)cccc2OC)=NC3)ccc1C(=O)O + CC1OCC2(CCN(c3cnc(Sc4ccnc(N)c4Cl)c(N)n3)CC2)C1N ?
inactive

What about COc1cc2nccc(Oc3ccc(NC(=O)C4(C(=O)Nc5ccc(F)cc5)CC4)cc3)c2cc1OC + CNCc1ccccc1-c1csc(C(C)Nc2nc(C)nc3cc(OC)c(OC)cc23)c1 ?
active

What about COc1cc(Nc2ncc3c(n2)-c2ccc(Cl)cc2C(c2c(F)cccc2OC)=NC3)ccc1C(=O)O + CNCc1ccccc1-c1csc(C(C)Nc2nc(C)nc3cc(OC)c(OC)cc23)c1 ?
active

What about CC(=O)OC12COC1CC(O)C1(C)C(=O)C(O)C3=C(C)C(OC(=O)C(O)C(NC(=O)OC(C)(C)C)c4ccccc4)CC(O)(C(OC(=O)c4ccccc4)C21)C3(C)C (stereo not given) + CC1OCC2(CCN(c3cnc(Sc4ccnc(N)c4Cl)c(N)n3)CC2)C1N ?
inactive

What about COc1cc2nccc(Oc3ccc(NC(=O)C4(C(=O)Nc5ccc(F)cc5)CC4)cc3)c2cc1OC + C=CC(=O)N1CCN(c2nc(=O)n(-c3c(C)ccnc3C(C)C)c3nc(-c4c(O)cccc4F)c(F)cc23)C(C)C1 ?
inactive

What about CCNC(=O)CC1N=C(c2ccc(Cl)cc2)c2cc(OC)ccc2-n2c(C)nnc21 (stereo not given) + C=CC(=O)N1CCN(c2nc(OCC3CCCN3C)nc3c2CCN(c2cccc4cccc(C)c24)C3)CC1CC#N ?
inactive

What about CC(=O)OC12COC1CC(O)C1(C)C(=O)C(O)C3=C(C)C(OC(=O)C(O)C(NC(=O)OC(C)(C)C)c4ccccc4)CC(O)(C(OC(=O)c4ccccc4)C21)C3(C)C (stereo not given) + COc1cc2nc(C)nc(NC(C)c3cc(N)cc(C(F)(F)F)c3)c2cc1OC1CCOC1 ?
inactive

What about CC(=O)OC12COC1CC(O)C1(C)C(=O)C(O)C3=C(C)C(OC(=O)C(O)C(NC(=O)OC(C)(C)C)c4ccccc4)CC(O)(C(OC(=O)c4ccccc4)C21)C3(C)C (stereo not given) + CNCc1ccccc1-c1csc(C(C)Nc2nc(C)nc3cc(OC)c(OC)cc23)c1 ?
inactive

What about COc1cc2nccc(Oc3ccc(NC(=O)C4(C(=O)Nc5ccc(F)cc5)CC4)cc3)c2cc1OC + CC1OCC2(CCN(c3cnc(Sc4ccnc(N)c4Cl)c(N)n3)CC2)C1N ?
inactive

What about CC(=O)OC12COC1CC(O)C1(C)C(=O)C(O)C3=C(C)C(OC(=O)C(O)C(NC(=O)OC(C)(C)C)c4ccccc4)CC(O)(C(OC(=O)c4ccccc4)C21)C3(C)C (stereo not given) + C=CC(=O)N1CCN(c2nc(OCC3CCCN3C)nc3c2CCN(c2cccc4cccc(C)c24)C3)CC1CC#N ?
inactive

What about CC1OCC2(CCN(c3cnc(Sc4ccnc(N)c4Cl)c(N)n3)CC2)C1N (stereo not given) + C=CC(=O)N1CCN(c2nc(=O)n(-c3c(C)ccnc3C(C)C)c3nc(-c4c(O)cccc4F)c(F)cc23)C(C)C1 ?
inactive

What about CC(C)n1nc(-c2ccc3oc(N)nc3c2)c2c(N)ncnc21 + COc1cc2nc(C)nc(NC(C)c3cc(N)cc(C(F)(F)F)c3)c2cc1OC1CCOC1 ?
inactive

What about Cn1nccc1Nc1nccc(-c2cc3c(s2)C(C)(C)N(CCN2CCOCC2)C3=O)n1 + COc1cc2nc(C)nc(NC(C)c3cc(N)cc(C(F)(F)F)c3)c2cc1OC1CCOC1 ?
inactive

What about Cn1nccc1Nc1nccc(-c2cc3c(s2)C(C)(C)N(CCN2CCOCC2)C3=O)n1 + CNCc1ccccc1-c1csc(C(C)Nc2nc(C)nc3cc(OC)c(OC)cc23)c1 ?
active

What about CC1COCCN1c1cc(-c2ccnn2C)c2ccnc(-c3ccn[nH]3)c2n1 (stereo not given) + COc1cc2nc(C)nc(NC(C)c3cc(N)cc(C(F)(F)F)c3)c2cc1OC1CCOC1 ?
inactive

What about CC1OCC2(CCN(c3cnc(Sc4ccnc(N)c4Cl)c(N)n3)CC2)C1N (stereo not given) + COc1cc2nc(C)nc(NC(C)c3cc(N)cc(C(F)(F)F)c3)c2cc1OC1CCOC1 ?
inactive
